Origin of values: patent US20170369590A1

Tgt: T1, HER2ECDHis (human, UniProt P04626 23-653, biotinylated in the cross-block ELISA (sites not given))
T1 construct: range 1-653; expressed in HEK-293F; also called soluble HER2; biotinylated HER2ECDHis
Run Description: ELISA; competitor 169
Measured Property: % binding vs no competitor (%)
Use % as the unit, but write only the number.

Use these answered entries as a reference point.
HuMab 084 (antibody, V domains shown, also called TH1014-084; PC1014-084) VH: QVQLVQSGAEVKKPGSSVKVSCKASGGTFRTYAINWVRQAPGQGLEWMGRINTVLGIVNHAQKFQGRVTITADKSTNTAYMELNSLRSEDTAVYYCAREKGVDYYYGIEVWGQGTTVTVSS VL: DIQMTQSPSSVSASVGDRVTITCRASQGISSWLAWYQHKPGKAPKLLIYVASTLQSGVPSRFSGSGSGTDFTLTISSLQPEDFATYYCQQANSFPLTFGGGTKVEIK | 73
HuMab 025 (antibody, V domains shown, also called TH1014-025; PC1014-025) VH: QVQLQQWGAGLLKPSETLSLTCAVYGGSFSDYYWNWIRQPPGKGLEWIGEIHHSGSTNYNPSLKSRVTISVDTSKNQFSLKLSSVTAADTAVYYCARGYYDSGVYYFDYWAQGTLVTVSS VL: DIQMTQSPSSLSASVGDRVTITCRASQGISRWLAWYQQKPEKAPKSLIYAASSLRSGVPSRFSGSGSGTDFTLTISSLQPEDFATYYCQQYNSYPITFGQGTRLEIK | 98

Field: next binder
# % binding vs no competitor (binder: HuMab 153 (antibody, V domains shown) VH: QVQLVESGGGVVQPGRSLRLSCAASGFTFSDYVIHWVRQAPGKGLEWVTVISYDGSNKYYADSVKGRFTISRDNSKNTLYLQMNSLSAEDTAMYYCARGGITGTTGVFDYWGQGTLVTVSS VL: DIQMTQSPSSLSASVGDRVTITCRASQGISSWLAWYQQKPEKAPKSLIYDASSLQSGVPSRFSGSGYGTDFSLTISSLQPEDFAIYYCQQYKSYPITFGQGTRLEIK ) is 111
